Reference source for all entries: PubChem BioAssay AID784

activation listing for selected compounds.
- assay system: Lysosomal acid glucosylceramidase (Homo sapiens) (UniProt P04062)
- Sequence (P04062 whole entry L483P): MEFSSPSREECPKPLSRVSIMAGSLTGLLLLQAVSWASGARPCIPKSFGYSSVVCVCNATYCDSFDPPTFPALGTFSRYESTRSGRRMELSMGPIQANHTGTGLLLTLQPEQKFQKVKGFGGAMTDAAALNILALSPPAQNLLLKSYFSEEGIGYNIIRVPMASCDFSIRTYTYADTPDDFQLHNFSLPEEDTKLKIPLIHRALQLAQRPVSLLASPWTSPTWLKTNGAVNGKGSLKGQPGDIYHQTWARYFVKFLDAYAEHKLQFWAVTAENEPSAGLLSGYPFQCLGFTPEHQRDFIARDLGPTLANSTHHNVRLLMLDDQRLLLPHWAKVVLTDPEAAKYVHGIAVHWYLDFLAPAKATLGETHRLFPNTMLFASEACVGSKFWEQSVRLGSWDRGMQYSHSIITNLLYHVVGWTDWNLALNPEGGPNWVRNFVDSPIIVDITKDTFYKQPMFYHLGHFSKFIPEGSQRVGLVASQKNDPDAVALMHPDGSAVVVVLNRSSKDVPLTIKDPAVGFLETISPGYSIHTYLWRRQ
- protocol summary: raising glucocerebrosidase activity, Gaucher cells – primary screen (AID 784);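 note: 0% = vehicle wells and 100% = positive control wells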
- condition context: L444P Gaucher fibroblasts, 4-MU-glucoside fluorescence, 3 days; at 10 µM; hits give high values
The campaign covered roughly 30,000 compounds. About 130 (0.43%) were called active. The sample as a whole holds a higher share of actives than the screen did.
measurement label: activation (%)

> print(dat)
                                    compound  readout.units  experimental.value
 1  CC(C)C(C(=O)NC1CCCCC1)N(CC1CCCO1)C(=O)CNS(=O)(=O)c1ccc(F)cc1 (centres undefined)              %               -1.42
 2  Cc1ccccc1NC(=O)c1cc(S(=O)(=O)N2CCOCC2)cs1              %               -11.8
 3         CC(=NCc1ccco1)C1=C(O)c2ccccc2C1=O              %               -41.5
 4  O=C(CN1CCN(c2nc(-c3ccccc3)cs2)CC1)NCc1ccc2c(c1)OCO2              %               -22.9
 5                 CCOCCCNS(=O)(=O)Cc1ccccc1              %                6.43
 6  CC(=O)c1ccc(-n2nnnc2SCC(=O)N2CCN(C(=O)c3ccco3)CC2)cc1              %               -18.5
 7  Cc1c(C(=O)OCc2cc(=O)n3cc(Br)ccc3n2)oc2ccccc12              %                  23
 8  CC1(c2ccccc2Cl)NC(=O)N(CC(=O)NC(=O)NCc2ccco2)C1=O (centres undefined)              %                -9.6
 9  COc1cccc(N(CC(=O)Nc2cccc(N(C)S(C)(=O)=O)c2)S(C)(=O)=O)c1              %                -7.1
10  Cc1nc2nc3c(cn2n1)C(=O)CC(c1ccccc1)C3 (centres undefined)              %               -10.1
11  CCc1c(C)nc(N)n2c(SCC(=O)N3CCN(c4ccccc4)CC3)nnc12              %               -9.46
12  COc1cccc(N(CC(=O)Nc2cccc(F)c2)S(C)(=O)=O)c1              %                4.09
13  Cn1cccc1C(=O)NC(=O)COC(=O)Cc1coc2ccc3ccccc3c12              %               -54.5
14  Cc1nn(-c2ccccc2)c(C)c1C(=O)OCC(=O)NC(=O)NC1CCCCC1              %                59.8
15       O=C(c1c(Cl)nc2sccn12)N1CCCc2ccccc21              %               -24.6
16  CCC(C)(C)NC(=O)C(c1cccn1C)N(Cc1ccc(C)cc1)C(=O)Cn1nnc2ccccc21 (centres undefined)              %               -4.98
17                  CCN1C(=O)CS/C1=N\c1nccs1              %               -12.6
18  CCN(CC)S(=O)(=O)c1ccc(NC(=O)CN(c2cccc(F)c2)S(C)(=O)=O)cc1              %                83.1
19  C=CCn1c(SCc2cc(C(=O)OC)c(C)o2)nnc1-c1ccncc1              %                31.7
20             Cc1ccc(-c2noc(CCC(N)=O)n2)cc1              %                1.93
21    c1ccc(-c2nnc(SCc3nc4ccccc4[nH]3)o2)cc1              %               -6.36
22             CCn1c2c(c3ccc(OC)cc31)CCCC2=O              %               -2.82
23  COc1ccc(-c2nnc(SC(C)C#N)o2)cc1 (centres undefined)              %               -2.02
24   COc1ccccc1C(=O)Oc1ccc(N2C(=O)CCC2=O)cc1              %                4.62
